Consider the following molecules; for each one, report its growth.
test system: HS 578T breast; test: NCI-60 one-dose screen, 48 h (100 = growth as untreated, 0 = no growth, -100 = all killed); settings: 10 µM
Compounds without any hit were thinned out: in the full panel of roughly 83,000, 20% have a hit. Activity calls are given as the source filed them. The calls were made as follows: active = growth percent below 10; inactive = the rest.

[[record]]
molecule = "N#Cc1c(NC(=O)c2cccc(C(F)(F)F)c2)sc2c1CCC(O)=C2"
target_or_system = "HS 578T breast"
assay_value = "44.1% (inactive)"

[[record]]
molecule = "COc1ccc(CCN2C(=O)/C(=C/c3csc(C#N)n3)SC2=S)cc1OC"
target_or_system = "HS 578T breast"
assay_value = "66.3% (inactive)"


Could you report growth for every entry in the following list?
1. O=C(CSc1ccc(-c2ccc(Cl)cc2)nn1)Nc1ccc(Cl)c(C(F)(F)F)c1
2. COC[C@@H](CC(C)C)N=C1NC(=O)/C(=C/c2ccc3ncsc3c2)N1
3. O=C(NCCCCC(c1ccc(F)cc1)c1ccc(F)cc1)NCCCc1cccnc1
4. COc1ccc([C@H]2C(C(=O)c3ccc(Cl)cc3)C3(N[C@@H]2c2ccccc2)C(=O)Nc2ccc(Cl)cc23)cc1 (stereo partly specified)
5. Cc1ccc(-c2cc(C(=O)N=Nc3c(O)[nH]c4ccccc34)c3ccccc3n2)cc1
6. COc1cc(NC(=O)CSc2nnc(-c3ccc4nc(-c5ccc(Cl)cc5)[nH]c4c3)o2)cc(OC)c1OC
7. O=C(CSc1nnc(-c2c[nH]c3ccccc23)n1-c1ccccc1)c1ccc(Br)cc1
8. CN1CCc2c(sc3ncnc(N/N=C/c4cn(-c5ccccc5)nc4-c4ccc(Cl)cc4)c23)C1

1: 70.6% (inactive); 2: 11.6% (inactive); 3: 56.4% (inactive); 4: -10.1% (active); 5: 12.4% (inactive); 6: 50.6% (inactive); 7: 52.3% (inactive); 8: 46.6% (inactive)

Provenance of the data: PubChem BioAssay (NCI)
